experimentalTarget: hERG potassium channel (Homo sapiens)
Construct: expressed in transfected cells; host or cells: CHO (Chinese Hamster Ovary)
Sequence (Q12809 whole entry): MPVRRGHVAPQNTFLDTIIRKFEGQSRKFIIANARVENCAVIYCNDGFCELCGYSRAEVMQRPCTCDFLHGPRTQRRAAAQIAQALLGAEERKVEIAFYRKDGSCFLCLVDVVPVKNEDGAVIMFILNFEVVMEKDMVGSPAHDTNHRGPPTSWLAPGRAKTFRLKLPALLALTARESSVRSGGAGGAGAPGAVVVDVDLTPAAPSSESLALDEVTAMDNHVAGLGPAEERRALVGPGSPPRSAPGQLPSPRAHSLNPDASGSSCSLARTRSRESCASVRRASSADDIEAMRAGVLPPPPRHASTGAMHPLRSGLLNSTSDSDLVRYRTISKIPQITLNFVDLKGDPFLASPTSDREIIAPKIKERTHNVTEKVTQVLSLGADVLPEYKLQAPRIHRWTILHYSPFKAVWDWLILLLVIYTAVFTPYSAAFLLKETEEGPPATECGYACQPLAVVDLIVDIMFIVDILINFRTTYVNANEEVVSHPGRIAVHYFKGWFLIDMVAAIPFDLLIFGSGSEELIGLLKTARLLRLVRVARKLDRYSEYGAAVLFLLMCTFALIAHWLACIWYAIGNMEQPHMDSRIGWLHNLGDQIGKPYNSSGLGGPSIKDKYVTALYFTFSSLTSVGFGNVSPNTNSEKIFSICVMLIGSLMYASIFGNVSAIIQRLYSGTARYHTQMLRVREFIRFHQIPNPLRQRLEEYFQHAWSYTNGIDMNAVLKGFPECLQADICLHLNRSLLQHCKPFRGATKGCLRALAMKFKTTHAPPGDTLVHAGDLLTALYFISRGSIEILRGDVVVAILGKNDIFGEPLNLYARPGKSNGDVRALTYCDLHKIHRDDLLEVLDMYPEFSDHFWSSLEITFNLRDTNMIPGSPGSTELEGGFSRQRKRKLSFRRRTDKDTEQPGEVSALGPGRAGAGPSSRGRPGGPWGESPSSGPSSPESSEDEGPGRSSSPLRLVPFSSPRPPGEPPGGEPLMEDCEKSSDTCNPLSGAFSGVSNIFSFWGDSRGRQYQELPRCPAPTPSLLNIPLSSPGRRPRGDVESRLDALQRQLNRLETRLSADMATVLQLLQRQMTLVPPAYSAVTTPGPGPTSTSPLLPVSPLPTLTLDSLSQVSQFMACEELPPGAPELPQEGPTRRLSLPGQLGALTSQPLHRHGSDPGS
protocolDetails: hERG screening assay (PatchXpress patch clamp, CHO cells)
Type: cell-based
conditionDescription: 10 μm test compound; hERG in CHO cells; peak current at −50 mV
Parameter class (string): assigned from measured hERG Patch Clamp hERG % blk 10 μm. Ranges: I (below 20%), II (20% to below 30%), III (30% or more)

> print(dat)
                                linenotation  assignedlabel
 1  CS(=O)(=O)Nc1ccc(-c2ccc(Oc3ccccc3)cc2)cc1Cl              I
 2  CCS(=O)(=O)Nc1ccc(-c2ccc(Cl)c(F)c2)c(Cl)c1              I
 3  CS(=O)(=O)Nc1ccc(-c2ccccc2OC(F)(F)F)c(Cl)c1            III
 4  Cc1cc(NS(C)(=O)=O)ccc1-c1cccc(OC(F)(F)F)c1             II
 5  O=S(=O)(Nc1ccc(-c2ccc(F)c(Cl)c2)c(Cl)c1)C1CC1            III
 6  CS(=O)(=O)Nc1ccc(-c2cccc(C(F)(F)F)c2)cc1            III
 7  CS(=O)(=O)Nc1ccc(-c2ccc(C(F)(F)F)cc2)c(Cl)c1              I
 8  O=S(=O)(Nc1ccc(-c2cccc(OC(F)(F)F)c2)cc1)C1CC1            III
 9  O=S(=O)(Nc1ccc(-c2ccc(OC(F)(F)F)cc2)c(Cl)c1)C1CC1            III
10  CS(=O)(=O)Nc1ccc(-c2ccc(Cl)c(F)c2)c(Cl)c1            III
11  Cc1cc(N(Cc2ccc(C(=O)O)cc2)S(C)(=O)=O)ccc1-c1ccc(Oc2ccccc2)cc1              I
12  O=S(=O)(Nc1ccc(-c2cccc(OC(F)(F)F)c2)c(Cl)c1)C1CC1             II
13  Cc1cc(NS(C)(=O)=O)ccc1-c1ccc(Oc2ccccc2)cc1             II
14  Cc1cc(N(Cc2cccc(C(=O)O)c2)S(C)(=O)=O)ccc1-c1ccc(Oc2ccccc2)cc1             II
15  CS(=O)(=O)Nc1ccc(-c2ccc(C(F)(F)F)cc2)c(C(F)(F)F)c1             II
16  Cc1cc(N(CC(=O)O)S(C)(=O)=O)ccc1-c1ccc(Oc2ccccc2)cc1              I
17   COc1cc(NS(C)(=O)=O)ccc1-c1ccc(Cl)c(F)c1             II

* * *

experimentalTarget: wild-type human cardiac sodium channel, hNav1.5 (late sodium current) (Homo sapiens, UniProt Q14524)
Construct: host or cells: HEK293
Sequence (Q14524 whole entry): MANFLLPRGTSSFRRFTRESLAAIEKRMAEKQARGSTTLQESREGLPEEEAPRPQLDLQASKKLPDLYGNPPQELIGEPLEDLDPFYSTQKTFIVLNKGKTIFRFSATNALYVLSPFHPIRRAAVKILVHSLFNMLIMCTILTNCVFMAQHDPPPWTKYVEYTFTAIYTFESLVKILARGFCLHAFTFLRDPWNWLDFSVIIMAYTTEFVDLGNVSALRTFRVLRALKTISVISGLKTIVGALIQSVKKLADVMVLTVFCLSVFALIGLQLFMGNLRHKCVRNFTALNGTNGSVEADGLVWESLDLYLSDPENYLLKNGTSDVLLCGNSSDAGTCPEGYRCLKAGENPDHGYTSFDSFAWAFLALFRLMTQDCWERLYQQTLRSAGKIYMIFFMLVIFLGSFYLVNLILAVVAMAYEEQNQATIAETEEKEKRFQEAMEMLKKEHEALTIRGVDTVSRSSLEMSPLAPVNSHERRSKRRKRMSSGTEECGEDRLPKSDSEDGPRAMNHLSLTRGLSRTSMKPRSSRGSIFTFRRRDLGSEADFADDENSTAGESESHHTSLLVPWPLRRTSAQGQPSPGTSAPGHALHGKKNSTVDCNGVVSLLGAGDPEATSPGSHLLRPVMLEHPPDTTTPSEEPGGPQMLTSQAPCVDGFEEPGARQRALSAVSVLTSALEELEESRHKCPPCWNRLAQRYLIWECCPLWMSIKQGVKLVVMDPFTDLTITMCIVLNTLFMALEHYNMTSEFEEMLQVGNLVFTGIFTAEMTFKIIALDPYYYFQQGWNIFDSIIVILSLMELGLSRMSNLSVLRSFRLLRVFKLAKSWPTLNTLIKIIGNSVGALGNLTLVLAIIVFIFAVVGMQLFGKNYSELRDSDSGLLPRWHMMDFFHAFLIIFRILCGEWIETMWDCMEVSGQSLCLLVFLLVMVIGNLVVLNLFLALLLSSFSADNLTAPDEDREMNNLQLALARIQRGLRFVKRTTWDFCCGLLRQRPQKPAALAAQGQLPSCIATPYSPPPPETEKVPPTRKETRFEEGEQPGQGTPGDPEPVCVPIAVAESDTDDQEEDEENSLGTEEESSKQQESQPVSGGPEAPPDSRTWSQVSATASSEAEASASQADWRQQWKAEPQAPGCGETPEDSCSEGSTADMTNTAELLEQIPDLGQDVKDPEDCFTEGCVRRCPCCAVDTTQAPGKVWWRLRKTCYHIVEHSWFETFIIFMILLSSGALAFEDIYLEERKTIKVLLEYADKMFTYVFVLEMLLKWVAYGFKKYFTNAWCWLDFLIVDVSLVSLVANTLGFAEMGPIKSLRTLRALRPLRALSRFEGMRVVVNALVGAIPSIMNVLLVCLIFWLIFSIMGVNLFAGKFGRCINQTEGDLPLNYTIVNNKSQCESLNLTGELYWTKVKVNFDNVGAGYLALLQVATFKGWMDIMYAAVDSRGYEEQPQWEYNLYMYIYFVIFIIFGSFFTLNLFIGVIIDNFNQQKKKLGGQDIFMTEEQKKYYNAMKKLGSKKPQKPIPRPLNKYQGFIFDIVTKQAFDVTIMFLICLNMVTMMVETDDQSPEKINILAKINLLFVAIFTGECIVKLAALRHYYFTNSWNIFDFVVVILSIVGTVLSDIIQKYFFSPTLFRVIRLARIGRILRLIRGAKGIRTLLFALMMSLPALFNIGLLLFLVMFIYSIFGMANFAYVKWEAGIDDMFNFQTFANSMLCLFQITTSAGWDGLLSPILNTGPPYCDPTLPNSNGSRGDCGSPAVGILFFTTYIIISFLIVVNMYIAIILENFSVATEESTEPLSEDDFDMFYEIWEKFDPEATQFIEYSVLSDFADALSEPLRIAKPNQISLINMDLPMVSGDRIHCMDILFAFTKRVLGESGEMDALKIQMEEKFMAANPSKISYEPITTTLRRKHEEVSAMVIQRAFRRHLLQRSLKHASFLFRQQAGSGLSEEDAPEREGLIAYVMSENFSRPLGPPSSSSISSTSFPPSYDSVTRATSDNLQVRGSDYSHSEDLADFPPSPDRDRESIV
protocolDetails: Late INa screening assay (PatchXpress whole cell patch clamp)
Assay type: cell-based
conditionDescription: 10 μM test compound; HEK293 hNav1.5; late INa generated with 10 μM Tefluthrin (some experiments 50 nM ATX II); read-out: Late INa % blk (10 μM test cmpd)
Parameter class (string): assigned from measured inhibition at 10 µM. Ranges: class 1 = under 30%, class 2 = from 30% up to 60%, class 3 = 60% and over

> print(dat)
                                linenotation  assignedlabel
 1  CS(=O)(=O)Nc1ccc(-c2cccc(C(F)(F)F)c2)cc1OC(F)(F)F        class 1
 2  Cc1cc(-c2ccc(Oc3ccccc3)cc2)c(Cl)cc1N(Cc1ccc(C(=O)O)cc1)S(C)(=O)=O        class 2
 3  CS(=O)(=O)Nc1ccc(-c2ccc(F)c(C(F)(F)F)c2)c(Cl)c1        class 3
 4     CS(=O)(=O)Nc1ccc(-c2ccc(Cl)c(F)c2)cc1        class 1
 5  COc1ccc(NS(C)(=O)=O)cc1-c1cccc(OC(F)(F)F)c1        class 2
 6  CS(=O)(=O)N(Cc1ccc(C(=O)O)cc1)c1cccc(-c2ccc(C(F)(F)F)c(F)c2)c1        class 1
 7  CC(C)(C)OC(=O)CN(c1ccc(-c2ccc(F)c(Cl)c2)c(Cl)c1)S(C)(=O)=O        class 2
 8  CS(=O)(=O)Nc1ccc(-c2cccc(C(F)(F)F)c2)c(F)c1        class 2
 9  CS(=O)(=O)Nc1ccc(-c2cccc(C(F)(F)F)c2)c(Cl)c1        class 3
10  COc1cc(NS(C)(=O)=O)ccc1-c1ccc(C(F)(F)F)cc1        class 2
11  CC(C)(C)OC(=O)CN(c1ccc(-c2cccc(OC(F)(F)F)c2)c(F)c1)S(C)(=O)=O        class 3
12  Cc1cc(NS(=O)(=O)C2CC2)ccc1-c1ccc(-c2nn[nH]n2)cc1        class 1
13   Cc1cc(NS(C)(=O)=O)ccc1-c1ccc(OC(C)C)cc1        class 2
14  COc1cccc(S(=O)(=O)Nc2cccc(-c3ccc(Cl)cc3)c2)c1        class 1
15  CCS(=O)(=O)Nc1ccc(-c2ccc(Cl)c(F)c2)c(Cl)c1        class 3
16  CS(=O)(=O)Nc1ccc(-c2ccc(OC(F)(F)F)cc2)c(F)c1        class 2
17  O=S(=O)(C1CC1)N(Cc1cccnc1)c1ccc(-c2cccc(OC(F)(F)F)c2)c(Cl)c1        class 2
18  Cc1cc(N(Cc2ccc(C(=O)O)cc2)S(C)(=O)=O)ccc1-c1ccc(OC(C)C)cc1        class 1
19  CC(C)NC(=O)c1cc(NS(C)(=O)=O)ccc1-c1ccc(Oc2ccccc2)cc1        class 2
20  CNC(=O)c1cc(NS(=O)(=O)C2CC2)ccc1-c1ccc(Oc2ccccc2)cc1        class 2
21  CS(=O)(=O)Nc1ccc(-c2cccc(C(F)(F)F)c2)cc1        class 2
22  COc1cc(N(CC(=O)O)S(C)(=O)=O)ccc1-c1cccc(OC(F)(F)F)c1        class 1
23  Cc1cc(N(Cc2ccc(C(=O)OC(C)(C)C)cc2)S(C)(=O)=O)ccc1-c1ccc(Oc2ccccc2)cc1        class 1
24  CC(C)Oc1ccc(-c2ccc(NS(=O)(=O)C3CC3)c(-c3nn[nH]n3)c2)cc1        class 1
25     CS(=O)(=O)Nc1ccc(-c2cccc(F)c2)c(Cl)c1        class 2
